# System: NCI-H322M lung
# procedure details: NCI-60 one-dose screen, 48 h
# condition description: 10 µM unless noted
Compounds without any hit were thinned out: in the full panel of roughly 83,000, 20% have a hit. Calls of active or inactive are those of the source. How the source made its calls: active means growth percent below 10; inactive means the rest.
Parameter call: string, one of yes for active, no for inactive

Short answer needed: outcome of this test for CSc1nc2c(c(=O)[nH]1)N=C1c3ccccc3C(=O)C1C(c1ccccc1)N2 (stereo not given) ?
no

Cool, now COC(=O)[C@@H]1CCCN1C(=O)[C@H]1CCCN1C(=O)[C@@H](Cc1c[nH]c2ccccc12)NC(=S)Nc1cc(C(F)(F)F)cc(C(F)(F)F)c1
no

Cool, now COc1ccc(C2Nc3nc(OC)n(C)c(=O)c3N=C3c4ccccc4C(=O)C32)cc1 (stereo not given)
no

Cool, now O=C(Nc1ccc(Cl)cc1)N1CCN(c2ccc3nncn3n2)CC1
no

Cool, now O=C(Nc1ccc(N2CCNCC2)cc1)c1[nH]ncc1Nc1cc(Oc2ccccc2)ncn1
yes

----------
Would you kindly list growth for each of these compounds?
# Test system: RXF 393 renal
# procedure details: NCI-60 one-dose screen, 48 h (100 = growth as untreated, 0 = no growth, -100 = all killed)
# condition description: 10 µM unless noted
# Procedure: Cells are grown in 96 well plates and exposed to the test compound for 48 hours. Compounds are tested at a single concentration, which is 10^-5 M for most compounds. The reported endpoint is percent growth (GI% or GIPRCNT), where numbers from 0 - 100% represent growth inhibition, and numbers from -100% - 0 represent cell death. For example, a value of 40 represents 60% growth inhibition. A value of 0 means no net growth occurred over the course of the experiment. […]
About 83,000 compounds went through this panel and 20% of them were active in at least one assay; those are over-represented in the sample as a whole.
Please reply with the bare figure in % and do not write the unit itself.

Form field: reported growth of O=C(/C=C/c1cccc(Cl)c1)OCc1ccc2cc1OCC#C/C=C\C#CCO2
101

Cool, now CCCCCCC(O)(c1ccc(F)cc1)C(CN1CCOCC1)c1ccccc1 (stereo not given)
20.6

Cool, now O=c1c2cc(F)ccc2sc2c(Nc3ccncc3)nc3ccccc3c12
-42

Cool, now C#CCn1cc(C=C2C(=O)N(C)C(=O)N(C)C2=O)c2cc(Cl)ccc21
103

Cool, now COCCN(C(=O)Cc1cccs1)C(C(=O)NCc1ccc(OC)cc1)c1ccc(C(C)C)cc1 (stereo not given)
88.5

Cool, now COc1ccc(-c2nc(N3CCN(C(=O)C4CCCCC4)CC3)c3c4c(sc3n2)CCCC4)cc1
-59.3

Cool, now CCOC(=O)c1cc2c(n1Cc1cc(OC)c(OC)c(OC)c1)-c1oncc1CCC2
26.9

Cool, now Clc1ccc(Nc2nnc(-c3ccc4c(c3)OCO4)o2)cc1
130

Cool, now Cc1ccc(N=NC2C(=O)N(c3ccc(Cl)cc3)N(c3ccc(Cl)cc3)C2=O)cc1
113

Cool, now COc1ccc(CCN2C(=O)CCSC2=S)cc1
18.7

Cool, now Nc1ccc(-c2ccc(-c3ccccc3N)c3[nH]c4ccccc4c23)cc1
24.5

Cool, now Cn1nc(C(C)(C)C)cc1NC(=O)Cc1ccc(/C=C2\C(=O)Nc3ccccc32)cc1
70.9

Cool, now C#CCn1cc(C=C2C(=O)NC(=O)NC2=O)c2cc(Cl)ccc21
72.3

Cool, now CN1CCN(Cc2ccc(NC(=O)c3cncc(C#Cc4nc(N)nc5[nH]ncc45)c3)cc2C(F)(F)F)CC1
79.2

Cool, now FC(F)(F)c1cccc(Nc2nc(-c3ccccc3)nc3ncccc23)c1
-13.6

Cool, now Cn1c(/C=C(\C#N)c2ccccc2)nc2c(N3CCOCC3)nc(Cl)nc21
-86.3

Cool, now COc1cccc2c(=O)c3c(sc12)c(NCCCNCCO)nc1ccccc13
44.5

Cool, now Fc1cccc(COc2ccc(Nc3ncnc4onc(-c5ccccc5)c34)cc2)c1
-26.6

Cool, now CC(C)CCNCC(O)Cn1c2ccccc2c2ccccc21 (stereo not given)
8.43

Cool, now COc1cc(/C=C2\CN(S(=O)(=O)c3ccccc3)C/C(=C\c3cc(CN4CCCC4)c(O)c(OC)c3)C2=O)cc(CN2CCCC2)c1O
-65.4

Cool, now CN(C)c1ccc(N=Cc2ccc(N3CCOCC3)cc2)cc1
130

Cool, now COc1ccc(-c2nsc3c2NC(=O)CC3c2ccc3c(c2)OCCO3)cc1 (stereo not given)
0.635

Cool, now NCCOc1ccccc1/C=C1\c2ccccc2-c2ccc([N+](=O)[O-])cc21
1.55

Cool, now O=c1oc2ccc(I)cc2c(=O)n1-c1ccc(I)cc1F
-3.51

Cool, now CC(=S)NC(=O)C(=O)/C=C1/NC(=O)C(=O)S1
110

Cool, now O=C1c2cc(I)ccc2Oc2cc([N+](=O)[O-])ccc2N1c1ccc(Cl)cc1F
99

Cool, now COc1ccc(Cn2c(Br)c3c(c2-c2cc(OC)c(OC)c(OC)c2)CCc2sc(NC(=O)c4ccc(OC)cc4)nc2-3)cc1
91.9

Cool, now O=c1c2cc(F)ccc2sc2c(NCCCNCCO)nc3ccc(Cl)cc3c12
61.1

Cool, now COc1ccc(OC)c(/C=C/C(=O)c2c(C)nc3ccccc3c2/C=C/c2ccccc2)c1
69.6

Cool, now O=C(Nc1ccc(F)cc1F)c1cc(Br)ccc1O
-5.34

Cool, now Cc1ccc(CN2CCC(C(=O)Nc3ccc(-c4cc5ccccc5[nH]4)cc3)CC2)o1
54.6

Cool, now COc1ccc(/C=C/C(=O)c2ccc(Nc3nc(NCCO)nc(Nc4ccc(Cl)cc4)n3)cc2)cc1
66.3

Cool, now COc1cc2nc(-c3cnc(N(C)C)nc3)nc(NC3CCN(Cc4ccccc4)CC3)c2cc1OC
-78.6

Cool, now NCCCNc1nc2ccccc2c2c(=O)c3cc(F)ccc3sc12
41.9

Cool, now O=C(Nc1ccc(-c2nc3ccc(NC(=O)c4ccc(Cl)cc4)cc3[nH]2)cc1)c1ccc(Cl)cc1
-49

Cool, now COc1ccc(-c2nc(-c3ccccc3)c(-c3ccccc3)[nH]2)cc1OC1CCCCC1
105

Cool, now COC(=O)C1=C(C)NC(C)=C(C(=O)OC)C(N2C(=O)CCC2=O)C1 (stereo not given)
104

Cool, now COc1ccc(CCN2C(=O)/C(=C/c3ccc(C4Oc5ccccc5C5CC(c6cccc(OC)c6)=NN54)cc3)SC2=S)cc1 (stereo not given)
107

Cool, now COc1cc(/C=C2\CN(C)C/C(=C\c3cc(CN4CCCCC4)c(O)c(OC)c3)C2=O)cc(CN2CCCCC2)c1O
29.7

Cool, now CCCCCCn1c(=N)n(CC(O)COc2cccc(C)c2)c2ccccc21 (stereo not given)
-95.1
